- ASSAY_EXPLANATION: Percent of Absorption after IV administration at the dose 2/2 (IV/Po/mg/kg)
- Format: ADME, organism-based
- TEST_CONDITIONS: cercopithecidae, in vivo, 2 mg/kg, read-out: Absorption
READOUT_LABEL: Fa
Answer with the number, then the unit.

response.value for "CCO/N=C(\c1ccc(Br)cc1)C1CCN(C2(C)CCN(C(=O)c3c(C)cc[n+]([O-])c3C)CC2)CC1" (field: Fa) = 80%

====

- ASSAY_EXPLANATION: Plasma clearance after IV administration at the dose 2/2 (IV/Po/mg/kg)
- Type: ADME, organism-based
- TEST_CONDITIONS: cercopithecidae, 2 mg/kg
READOUT_LABEL: clearance (mL/min/kg)
Reply with just the number (in mL/min/kg).

Looking up "CCO/N=C(\c1ccc(Br)cc1)C1CCN(C2(C)CCN(C(=O)c3c(C)cc[n+]([O-])c3C)CC2)CC1" , I found its clearance recorded as 4.28

====

- Test system: U-87 MG
- ASSAY_EXPLANATION: Concentration required to inhibit the entry of HIV-1 reporter virus (ADA) into U-87 cells by 50%
- Assay type: functional, cell-based, U-87MG ATCC
- TEST_CONDITIONS: u-87mg atcc
READOUT_LABEL: IC50

Entry CO/N=C(\c1ccc(Br)cc1)C1CCN(C2(C)CCN(C(=O)c3c(C)cccc3C)CC2)CC1 (stereo in doubt) , IC50 reported as 1.4 nM

====

- ASSAY_EXPLANATION: Percent of Absorption after IV administration at the dose 10/10 (IV/Po/mg/kg)
- Type: ADME, organism-based
- TEST_CONDITIONS: in vivo, 10 mg/kg, read-out: Absorption
READOUT_LABEL: Fa (%)
Supply the numeric figure in %, leaving out any unit text.

# compound CCO/N=C(\c1ccc(Br)cc1)C1CCN(C2(C)CCN(C(=O)c3c(C)cc[n+]([O-])c3C)CC2)CC1 [ANCRIVIROC] ; its Fa = 57

====

- Tested on: U-87 MG
- ASSAY_EXPLANATION: Concentration required to inhibit the entry of HIV-1 reporter virus (ADA) into U-87 cells by 50%
- Assay type: functional, cell-based, U-87MG ATCC
- TEST_CONDITIONS: Homo sapiens, U-87 MG
Give measured pIC50 for each item. Keep answers brief.
# reply with the number alone; pIC50 is -log10 of concentration in mol/L

# pIC50 of "CO/N=C(\c1ccc(Br)cc1)C1CCN(C2(C)CCN(C(=O)c3c(C)cccc3O)CC2)CC1" = 8.40

Lab note: measured pIC50 of "Cc1cccc(C)c1C(=O)N1CCC(C)(N2CCC(Cc3ccc(C(F)(F)F)cc3)CC2)CC1" was 9.00

Consider "CCO/N=C(\c1ccc(Cl)cc1)C1CCN(C2(C)CCN(C(=O)c3c(C)cc[n+]([O-])c3C)CC2)CC1" . Its measured pIC50 is 8.85

Entry under test: "CO/N=C(\c1ccc(C(F)(F)F)cc1)C1CCN(C2(C)CCN(C(=O)c3c(C)cc[n+]([O-])c3C)CC2)CC1" . Its pIC50 was 8.96

The compound "CO/N=C(\c1ccc(Br)cc1)C1CCN(C2(C)CCN(C(=O)c3c(C)cccc3N)CC2)CC1" showed pIC50 equal to 9.30

Summary for this compound, "Cc1cccc(C)c1C(=O)N1CCC(C)(N2CCC(Cc3ccc(I)cc3)CC2)CC1" : pIC50 is 8.05

// "Cc1cccc(C)c1C(=O)N1CCC(C)(N2CCC(Cc3cccc(Br)c3)CC2)CC1" : pIC50 value = 7.39

// pIC50 value for "Cc1cccc(C)c1C(=O)N1CCC(C)(N2CCC(Cc3ccc(Br)cc3)CC2)CC1" : 8.00

For "Cc1cccc(C)c1C(=O)N1CCC(C)(N2CCC(Cc3ccccc3Br)CC2)CC1" the compound record lists pIC50 as 5.89

Value source: ChEMBL document CHEMBL1135508
